- Target of assay: hMAO-B (Homo sapiens, UniProt P27338)
- Construct: purchased Sigma-Aldrich (Steinheim, Germany)
- Sequence (P27338 whole entry): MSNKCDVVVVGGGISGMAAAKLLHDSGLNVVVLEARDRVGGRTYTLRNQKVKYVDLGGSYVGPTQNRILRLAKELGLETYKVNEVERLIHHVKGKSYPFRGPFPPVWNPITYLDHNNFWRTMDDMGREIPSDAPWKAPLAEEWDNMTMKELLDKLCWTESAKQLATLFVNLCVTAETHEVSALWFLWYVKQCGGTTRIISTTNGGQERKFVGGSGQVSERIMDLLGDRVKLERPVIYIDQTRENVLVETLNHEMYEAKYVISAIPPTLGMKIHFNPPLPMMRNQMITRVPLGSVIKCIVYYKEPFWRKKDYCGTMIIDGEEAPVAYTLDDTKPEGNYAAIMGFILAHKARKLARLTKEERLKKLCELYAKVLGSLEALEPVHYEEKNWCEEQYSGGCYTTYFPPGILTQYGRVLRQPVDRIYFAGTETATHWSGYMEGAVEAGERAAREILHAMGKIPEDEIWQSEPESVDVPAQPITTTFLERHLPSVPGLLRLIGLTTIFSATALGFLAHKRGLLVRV
- Experiment notes: MAO-B inhibition assay, fluorometric (Amplex Red / horseradish peroxidase-coupled)
- Type: biochemical
- Run conditions: 10^−9 M
Parameter: inhibition at 0.001 µM. Scope: all listed entries.
Hey, just the number and the unit after it is fine.

Recorded results for 3 molecules are shown here.
[
  {
    "Chemical string": "Cn1nnnc1SCC(=O)N(Cc1ccccc1)c1ccc(S(N)(=O)=O)cc1",
    "inhibition at 0.001 µM": "15.2%"
  },
  {
    "Chemical string": "Cc1ccc(CN(C(=O)CSc2nc3cc(Cl)ccc3s2)c2ccc(S(N)(=O)=O)cc2)cc1",
    "inhibition at 0.001 µM": "21%"
  },
  {
    "Chemical string": "NS(=O)(=O)c1ccc(N(Cc2ccccc2)C(=O)CSc2nc3cc(Cl)ccc3s2)cc1",
    "inhibition at 0.001 µM": "24.5%"
  }
]

Find the recorded inhibition at 0.001 µM belonging to NS(=O)(=O)c1ccc(N(Cc2ccccc2)C(=O)CSc2ccccn2)cc1 and report it.
20.9%

Find the recorded inhibition at 0.001 µM belonging to Cn1cnnc1SCC(=O)N(Cc1ccccc1)c1ccc(S(N)(=O)=O)cc1 and report it.
20.4%

----------
- Target of assay: hMAO-A (Homo sapiens, UniProt P21397)
- Construct: purchased Sigma-Aldrich (Steinheim, Germany)
- Experiment notes: MAO-A inhibition assay, fluorometric (Amplex Red / horseradish peroxidase-coupled)
- Format: biochemical
- Run conditions: 10^−4 M; read-out: MAO-A % Inhibition
Parameter: inhibition at 100 µM. Scope: all listed entries.
Field: numeric (%). Do not append units.

Recorded results for 5 molecules are shown here.
[
  {
    "Molecule": "Cn1ccnc1SCC(=O)N(Cc1ccccc1)c1ccc(S(N)(=O)=O)cc1 [Compound 4a]",
    "Unit of measurement": "%",
    "Observed": 26.5
  },
  {
    "Molecule": "NS(=O)(=O)c1ccc(N(Cc2ccccc2)C(=O)CSc2nc3ccccc3s2)cc1 [Compound 4h]",
    "Unit of measurement": "%",
    "Observed": 20.3
  },
  {
    "Molecule": "NS(=O)(=O)c1ccc(N(Cc2ccccc2)C(=O)CSc2nc3ccccc3o2)cc1 [Compound 4g]",
    "Unit of measurement": "%",
    "Observed": 32.2
  },
  {
    "Molecule": "Cc1ccc(CN(C(=O)CSc2nc3cc(Cl)ccc3s2)c2ccc(S(N)(=O)=O)cc2)cc1 [Compound 4t]",
    "Unit of measurement": "%",
    "Observed": 38.3
  },
  {
    "Molecule": "Cc1ccc(CN(C(=O)CSc2nccn2C)c2ccc(S(N)(=O)=O)cc2)cc1 [Compound 4k]",
    "Unit of measurement": "%",
    "Observed": 30.3
  }
]

Enter reported inhibition at 100 µM observed with hMAO-A (Homo sapiens, UniProt P21397) for Cc1ccc(CN(C(=O)CSc2nc3ccccc3o2)c2ccc(S(N)(=O)=O)cc2)cc1 [Compound 4r]
32.7

Enter reported inhibition at 100 µM observed with hMAO-A (Homo sapiens, UniProt P21397) for Cn1cnnc1SCC(=O)N(Cc1ccccc1)c1ccc(S(N)(=O)=O)cc1 [Compound 4b]
20.1

Enter reported inhibition at 100 µM observed with hMAO-A (Homo sapiens, UniProt P21397) for Cn1nnnc1SCC(=O)N(Cc1ccccc1)c1ccc(S(N)(=O)=O)cc1 [Compound 4d]
29.5

----------
Parameter: melting point

[
  {
    "Compound": "Cn1cnnc1SCC(=O)N(Cc1ccccc1)c1ccc(S(N)(=O)=O)cc1 [Compound 4b]",
    "melting point": "201 to 203 °C"
  }
]

Find the recorded melting point belonging to Cc1ccc(CN(C(=O)CSc2nnc(C)s2)c2ccc(S(N)(=O)=O)cc2)cc1 [Compound 4m] and report it.
178 to 180 °C

Find the recorded melting point belonging to Cc1ccc(CN(C(=O)CSc2nc3ccccc3s2)c2ccc(S(N)(=O)=O)cc2)cc1 [Compound 4s] and report it.
170 to 172 °C

Find the recorded melting point belonging to NS(=O)(=O)c1ccc(N(Cc2ccccc2)C(=O)CSc2nc3ccccc3s2)cc1 [Compound 4h] and report it.
88 to 90 °C

Find the recorded melting point belonging to Cc1ccc(CN(C(=O)CSc2nc3ccccc3o2)c2ccc(S(N)(=O)=O)cc2)cc1 [Compound 4r] and report it.
148 to 150 °C

Find the recorded melting point belonging to NS(=O)(=O)c1ccc(N(Cc2ccccc2)C(=O)CSc2nc3cc(Cl)ccc3s2)cc1 [Compound 4i] and report it.
114 to 116 °C

----------
Parameter: inhibition at 10 µM. Scope: all listed entries.
- Target of assay: hMAO-B (Homo sapiens, UniProt P27338)
- Construct: purchased Sigma-Aldrich (Steinheim, Germany)
- Experiment notes: MAO-B inhibition assay, fluorometric (Amplex Red / horseradish peroxidase-coupled);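 further: fluorescence read at Ex 535 nm and Em 587 nm over 30 min, linear phase, inhibition relative to uninhibited control wells, IC50 from log concentration–response curves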
- Format: biochemical
- Run conditions: 10^−5 M
Field: numeric (%). Do not append units.

Recorded results for 3 compounds are shown here.
[
  {
    "Compound": "NS(=O)(=O)c1ccc(N(Cc2ccccc2)C(=O)CSc2nc3cc(Cl)ccc3s2)cc1 [Compound 4i]",
    "Unit of measurement": "%",
    "inhibition at 10 µM": 78.6
  },
  {
    "Compound": "Cn1nnnc1SCC(=O)N(Cc1ccccc1)c1ccc(S(N)(=O)=O)cc1 [Compound 4d]",
    "Unit of measurement": "%",
    "inhibition at 10 µM": 76.2
  },
  {
    "Compound": "Cc1ccc(CN(C(=O)CSc2nc3cc(Cl)ccc3s2)c2ccc(S(N)(=O)=O)cc2)cc1 [Compound 4t]",
    "Unit of measurement": "%",
    "inhibition at 10 µM": 80.5
  }
]

Find the recorded inhibition at 10 µM belonging to Cn1cnnc1SCC(=O)N(Cc1ccccc1)c1ccc(S(N)(=O)=O)cc1 [Compound 4b] and report it.
82.5

Find the recorded inhibition at 10 µM belonging to NS(=O)(=O)c1ccc(N(Cc2ccccc2)C(=O)CSc2ccccn2)cc1 [Compound 4f] and report it.
76.3

----------
Lab note: IC50 readings collected with UniProtKB P27338 for the following compounds.
Field: numeric (nM). Do not append units.

Find the recorded IC50 belonging to Cn1cnnc1SCC(=O)N(Cc1ccccc1)c1ccc(S(N)(=O)=O)cc1 [Compound 4b] and report it.
188

Find the recorded IC50 belonging to NS(=O)(=O)c1ccc(N(Cc2ccccc2)C(=O)CSc2ccccn2)cc1 [Compound 4f] and report it.
146

----------
- Target of assay: hMAO-A (Homo sapiens)
- Construct: purchased Sigma-Aldrich (Steinheim, Germany)
- Experiment notes: MAO-A inhibition assay, fluorometric (Amplex Red / horseradish peroxidase-coupled)
- Format: biochemical
- Run conditions: 10^−4 M; read-out: MAO-A % Inhibition
Parameter: inhibition at 100 µM

Recorded results for 2 molecules are shown here.
[
  {
    "Chemical string": "NS(=O)(=O)c1ccc(N(Cc2ccccc2)C(=O)CSc2ccccn2)cc1",
    "Observed": "30.1%"
  },
  {
    "Chemical string": "NS(=O)(=O)c1ccc(N(Cc2ccccc2)C(=O)CSc2nc3cc(Cl)ccc3s2)cc1",
    "Observed": "40.5%"
  }
]

Kindly consider the entry below.
Find the recorded inhibition at 100 µM belonging to Cc1ccc(CN(C(=O)CSc2nnnn2-c2ccccc2)c2ccc(S(N)(=O)=O)cc2)cc1 and report it.
28.7%

----------
- Experiment notes: Cytotoxicity MTT assay
- Type: cell-based, mouse
- Run conditions: mouse, NIH/3T3 mouse embryonic fibroblast cells, read-out: IC50 NIH/3T3 cell line
Parameter: IC50

[
  {
    "Chemical string": "NS(=O)(=O)c1ccc(N(Cc2ccccc2)C(=O)CSc2nc3cc(Cl)ccc3s2)cc1",
    "IC50": "> 1000 µM"
  }
]

Kindly consider the entry below.
Find the recorded IC50 belonging to Cc1ccc(CN(C(=O)CSc2nc3cc(Cl)ccc3s2)c2ccc(S(N)(=O)=O)cc2)cc1 and report it.
> 1000 µM

----------
Parameter: inhibition at 100 µM. Scope: all listed entries.
- Target of assay: hMAO-A (Homo sapiens, UniProt P21397)
- Construct: purchased Sigma-Aldrich (Steinheim, Germany)
- Sequence (P21397 1-527): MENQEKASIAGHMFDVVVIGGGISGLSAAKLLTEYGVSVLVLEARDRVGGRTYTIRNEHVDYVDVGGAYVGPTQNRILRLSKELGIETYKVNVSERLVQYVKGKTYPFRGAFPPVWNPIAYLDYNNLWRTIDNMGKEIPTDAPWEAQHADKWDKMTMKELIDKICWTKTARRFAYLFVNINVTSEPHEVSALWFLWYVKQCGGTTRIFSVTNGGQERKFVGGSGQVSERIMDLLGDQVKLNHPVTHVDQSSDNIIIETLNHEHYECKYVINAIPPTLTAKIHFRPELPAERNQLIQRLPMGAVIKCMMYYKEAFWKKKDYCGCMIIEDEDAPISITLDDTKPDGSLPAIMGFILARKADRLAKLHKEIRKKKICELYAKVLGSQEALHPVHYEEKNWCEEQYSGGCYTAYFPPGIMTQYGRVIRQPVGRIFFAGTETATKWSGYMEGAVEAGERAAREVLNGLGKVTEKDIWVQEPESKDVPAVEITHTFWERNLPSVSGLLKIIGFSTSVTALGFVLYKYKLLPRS
- Experiment notes: MAO-A inhibition assay, fluorometric (Amplex Red / horseradish peroxidase-coupled)
- Assay type: biochemical
- Run conditions: 10^−4 M; read-out: MAO-A % Inhibition
Field: numeric (%). Do not append units.

Recorded results for 3 molecules are shown here.
[
  {
    "Molecule": "Cc1ccc(CN(C(=O)CSc2nnnn2C)c2ccc(S(N)(=O)=O)cc2)cc1 [Compound 4n]",
    "Unit of measurement": "%",
    "Observed": 21.5
  },
  {
    "Molecule": "COc1ccc2sc(SCC(=O)N(Cc3ccccc3)c3ccc(S(N)(=O)=O)cc3)nc2c1 [Compound 4j]",
    "Unit of measurement": "%",
    "Observed": 37.4
  },
  {
    "Molecule": "COc1ccc2sc(SCC(=O)N(Cc3ccc(C)cc3)c3ccc(S(N)(=O)=O)cc3)nc2c1 [Compound 4u]",
    "Unit of measurement": "%",
    "Observed": 29.9
  }
]

Kindly consider the entry below.
Enter reported inhibition at 100 µM observed with hMAO-A (Homo sapiens, UniProt P21397) for Cc1ccc(CN(C(=O)CSc2nc3ccccc3s2)c2ccc(S(N)(=O)=O)cc2)cc1 [Compound 4s]
33
